Overview of reported IC50 across a group of compounds:
tested on: Target C mRNA; test: RT-qPCR splicing assay panel, Target C canonical junction (CJ) mRNA; format: cell-based, human; settings: Homo sapiens, Table 4B; gene panel; read-out: Target C (IC50, decrease in CJ mRNA levels)

Query: Return reported IC50; argument: Cc1nc2cc(O)c(-c3cnc(N4CC[C@@H](NC(C)(C)C)C4)nn3)cc2o1
Result: > 10000 nM

###

test system: HTT mRNA; assay: RT-qPCR splicing assay, HTT canonical (CJ) and alternative (AJ) junction mRNA; format: cell-based, human; conditions: Homo sapiens, 24 h, Table 3A; A673 or K562 cells, 24 h treatment; read-out: HTT CJ (IC50, decrease in CJ mRNA)
pIC50: −log10 of the molar value.
measure: pIC50

molecule: Oc1cc(-c2cn[nH]c2)ccc1-c1ccc(N2CCC(NC3(CF)CC3)C2)nn1 (stereo not shown)
reported measurement: > 7.00
--
molecule: COc1cc(-c2ccc(-c3ccc(OC4CC(C)(C)NC(C)(C)C4)nn3)c(O)c2)cnn1
reported measurement: > 7.00
--
molecule: COc1nccc(-c2ccc(-c3ccc(N4CCC(NCC5CC5)C4)nn3)c(O)c2)n1 (stereo not shown)
reported measurement: 6.00 to 7.00

Query: Return reported pIC50; argument: CN(C)c1cc(-c2ccc(-c3ccc(N4CCC(NC5CCC5)C4)nn3)c(O)c2)cnn1 (stereo not shown)
Result: < 5.00

Query: Return reported pIC50; argument: Cc1ccc(-c2ccc(-c3ccc(N4CCC(NC5CCC5)C4)nn3)c(O)c2)o1 (stereo not shown)
Result: 5.00 to 6.00
